# target: VEGFR2 (Homo sapiens, UniProt P35968)
# Sequence (P35968 20-1356, species assumed): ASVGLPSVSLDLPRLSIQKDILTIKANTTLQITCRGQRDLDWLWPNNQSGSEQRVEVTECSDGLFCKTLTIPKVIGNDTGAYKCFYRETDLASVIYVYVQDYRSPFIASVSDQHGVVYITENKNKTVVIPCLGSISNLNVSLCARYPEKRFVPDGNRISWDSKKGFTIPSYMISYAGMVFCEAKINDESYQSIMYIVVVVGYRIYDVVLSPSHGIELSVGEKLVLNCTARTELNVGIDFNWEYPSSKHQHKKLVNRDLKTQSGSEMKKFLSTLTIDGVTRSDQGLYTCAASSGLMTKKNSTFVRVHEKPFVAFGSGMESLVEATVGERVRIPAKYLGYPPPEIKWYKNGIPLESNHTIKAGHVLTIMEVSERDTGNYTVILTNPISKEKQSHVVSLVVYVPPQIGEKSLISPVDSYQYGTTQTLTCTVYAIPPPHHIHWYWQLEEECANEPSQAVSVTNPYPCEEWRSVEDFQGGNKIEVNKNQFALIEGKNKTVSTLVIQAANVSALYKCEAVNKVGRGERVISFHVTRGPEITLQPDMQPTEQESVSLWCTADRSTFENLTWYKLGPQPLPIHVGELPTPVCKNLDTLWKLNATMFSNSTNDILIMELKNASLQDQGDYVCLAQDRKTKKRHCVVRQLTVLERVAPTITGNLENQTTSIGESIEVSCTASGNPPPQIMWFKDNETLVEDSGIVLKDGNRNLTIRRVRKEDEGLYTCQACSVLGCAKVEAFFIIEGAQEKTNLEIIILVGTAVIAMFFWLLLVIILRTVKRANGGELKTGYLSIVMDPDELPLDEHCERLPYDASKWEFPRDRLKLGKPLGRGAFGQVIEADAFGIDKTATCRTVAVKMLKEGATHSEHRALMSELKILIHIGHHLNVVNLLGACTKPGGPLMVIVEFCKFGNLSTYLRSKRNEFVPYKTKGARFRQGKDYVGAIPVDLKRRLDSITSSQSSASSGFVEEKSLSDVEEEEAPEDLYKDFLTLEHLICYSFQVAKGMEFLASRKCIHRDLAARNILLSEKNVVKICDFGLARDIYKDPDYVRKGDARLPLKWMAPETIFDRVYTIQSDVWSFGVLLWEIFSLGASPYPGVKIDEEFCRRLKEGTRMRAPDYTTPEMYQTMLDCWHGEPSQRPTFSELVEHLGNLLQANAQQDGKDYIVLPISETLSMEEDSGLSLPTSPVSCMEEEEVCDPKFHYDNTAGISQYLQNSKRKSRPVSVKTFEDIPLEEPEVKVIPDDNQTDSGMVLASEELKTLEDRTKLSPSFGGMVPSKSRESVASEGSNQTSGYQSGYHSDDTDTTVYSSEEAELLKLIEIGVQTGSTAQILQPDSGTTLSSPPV
# experiment.notes: cellular inhibition of VEGFR2
# Format: cell-based
# test.parameters: triplicate
endpoint: IC50

Just so you know, measured IC50 for C[C@H]1C/C=C(/F)C(=O)[C@@H](O)[C@@H](O)C/C=C/c2cc(O)cc(O)c2C(=O)O1 [fluoroenone 1] came out at 17 nM

# compound COc1cc(O)c2c(c1)/C=C/C[C@H](O)[C@H](O)C(=O)/C=C\C[C@H](C)OC2=O [LL-Z1640-2] ; its IC50 = 6.5 nM

###

# System: RENCA-LN cells
# experiment.notes: RENCA cell proliferation assay
# Type: cell-based, Murine
# test.parameters: Mus musculus, Renca; FIG. 12; read-out: IC50, renal carcinoma line (RENCA)
endpoint: IC50

What the record says about C[C@H]1C/C=C\C(=O)[C@@H](O)[C@@H](O)CCOc2cc(O)cc(O)c2C(=O)O1 [1agh] : IC50 is 0.1 to 0.5 µM
